# System: CCRF-CEM leukemia
# method.summary: NCI tumour cell line growth inhibition, 48 h; in the data active = GI50 below about 0.43 µM; inactive = the rest
Outcome codes: 1 (active), -1 (inactive)

* Cc1ccc(S(=O)c2ccc([N+](=O)[O-])c3nonc23)cc1 (centres undefined) | -1
* COc1ccc2c(c1)c(-c1cc(-c3cn(C)c4ccc(OC)cc34)[nH]n1)cn2C | -1
* COc1ccc(-c2nn(-c3cccc(Cl)c3)cc2-c2cc(-c3cccs3)no2)cc1 | -1
* Cc1cc(C(=O)Nc2cc(Nc3ncccc3-c3ncnc4nc[nH]c34)ccc2F)cc(C(C)(C)C#N)c1 | -1
* Cc1ccc(NCCNCC(O)CO)c2c(=O)c3ccccc3sc12 (centres undefined) | -1
* O=C1c2c(O)ccc(O)c2C(=O)c2c(NCCNCCO)ccc(NCCNCCO)c21 | 1
* COc1cc(-c2nn3c(=O)n(-c4ccc(Cl)cc4)c(=O)nc3s2)cc(OC)c1OC | -1
* N#CC1=C(N)Oc2c(sc3c(Br)cccc23)C1c1ccc(F)cc1 (centres undefined) | 1
* COc1ccc(-c2nn3ncccc3c2-c2ccnc(Nc3cccc(C(F)(F)F)c3)n2)cc1 | -1
* CC(=O)[O-].O=[N+]([O-])c1ccc([O-])c(C=NCCN=Cc2cc([N+](=O)[O-])ccc2[O-])c1.[Mn+3] | -1
* C#CCn1cc(C=C2C(=O)NC(=S)NC2=O)c2cc(Cl)ccc21 | -1
* COc1cc(/C=C2\C(=O)Nc3ccc(Br)cc32)cc(OC)c1OC | -1
* COc1ccc(-c2nn(-c3cccc(Cl)c3)cc2/C=C2\C(=N)N(c3ccccc3)N=C2N)cc1 | -1
* O=C(Nc1nc2ccc(F)cc2s1)c1cccnc1Nc1ccc(Cl)cc1Cl | -1
* Cc1ccc2c(C(C[N+](=O)[O-])c3ccco3)c(-c3ccccc3)[nH]c2c1 (centres undefined) | -1
* NCCn1c2c(c3ccccc3c1=O)C(=O)c1ccccc1-2 | 1
* CCCC(=O)Nc1cn(COC)c(C(=O)N2C[C@H]3C[C@@]34C2=CC(=O)c2[nH]cc(C)c24)n1 | -1
* CCCCCCCCCCCCCCCCCCNC(=O)[C@H]1CSC(c2ccc(F)c(OC)c2)N1 (some centres undefined) | 1
* CCn1c(-c2nonc2N)nc2c(C#CC(C)(C)O)ncc(OC[C@@H]3CCCN3)c21 | -1
